# SUBJECT_OF_TEST: hBPGM (Homo sapiens (Human))
# ASSAY: BPGM Synthase Assay
# Assay type: biochemical
# MEASUREMENT_CONDITIONS: Table 6 additional results; read-out: huBPGM: synthase Enzyme IC50
pIC50: −log10 of the molar value.
Label rule, in plain words: pIC50 of 6 and up is yes, under 6 is no.

{"columns": ["COMPOUND", "CLASSIFICATION"],
 "data": [
  ["Cc1nc(CNC(=O)c2cccc(C#N)n2)sc1-c1csc(-c2cc(O)c(C(=O)O)cc2F)n1 [Example 180]", "yes"]
]}

# bool: pIC50 of COC(=O)NCc1nc(C)c(-c2csc(-c3cc(O)c(C(=O)O)cc3F)c2)s1 [Example 161] >= 6 yes

# bool: pIC50 of Cc1nc(Cn2cccnc2=O)sc1-c1csc(-c2cc(O)c(C(=O)O)cc2F)n1 [Example 181] >= 6 yes

# bool: pIC50 of Cc1nc(CNC2CCOCC2)sc1-c1cccc(-c2ccc(C(=O)O)cc2)c1 [Example 51] >= 6 no

# bool: pIC50 of Cc1nc(CC(F)(F)F)sc1-c1cccc(-c2ccc(C(=O)O)c(O)c2)c1 [Example 292] >= 6 no

# bool: pIC50 of Cc1nc(CNC(=O)c2cccnn2)sc1-c1cccc(-c2cc(O)c(C(=O)O)cc2F)n1 [Example 153] >= 6 yes

# bool: pIC50 of Cc1ccc(C#N)c(OCC(=O)N/N=C/c2cccc(-c3cc(O)c(C(=O)O)cc3F)c2)n1 [Example 332] >= 6 yes

====

# SUBJECT_OF_TEST: hBPGM (Homo sapiens (Human))
# ASSAY: BPGM Synthase Assay
# Format: biochemical
# MEASUREMENT_CONDITIONS: Table 6 additional results; read-out: huBPGM: synthase Enzyme IC50
I'd appreciate it if you could supply IC50 values for the items below.
One number for each entry, in µM.

Please review the following examples before continuing.
{"columns": ["COMPOUND", "IC50 [µM]"],
 "data": [
  ["Cc1nc(CNc2ncccn2)sc1-c1cccc(-c2ccc(C(=O)O)cc2)c1 [Example 80]", 0.22],
  ["Cc1nc(COc2ncccn2)sc1-c1cccc(-c2ccc(C(=O)O)c(F)c2)n1 [Example 96]", 1.3]
]}

// switching to the query compound
Returns the measured IC50 for the input compound. Input: Cc1nc(Cc2ccccc2)sc1-c1cccc(-c2cc(O)c(C(=O)O)cc2F)c1 [Example 105] 1.6

====

# SUBJECT_OF_TEST: human Bisphosphoglycerate mutase (hBPGM) (Homo sapiens (Human), UniProt P07738)
# Sequence (P07738 whole entry): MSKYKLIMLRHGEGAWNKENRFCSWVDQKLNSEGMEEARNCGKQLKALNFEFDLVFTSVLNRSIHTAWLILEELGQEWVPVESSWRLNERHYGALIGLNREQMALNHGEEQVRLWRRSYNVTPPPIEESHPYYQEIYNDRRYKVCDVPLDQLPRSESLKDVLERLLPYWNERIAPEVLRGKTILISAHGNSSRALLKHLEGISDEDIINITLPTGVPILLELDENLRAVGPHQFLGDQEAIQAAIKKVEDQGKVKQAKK
# ASSAY: BPGM Phosphatase Assay
# MEASUREMENT_CONDITIONS: Table 6 additional results; read-out: huBPGM: phosphatase Enzyme EC50
ASSAY_METRIC: EC50 (nM)
Answers are plain numbers, in nM.

Please review the following examples before continuing.
{"columns": ["MOLECULE", "SUBJECT_OF_TEST", "OBSERVED"],
 "data": [
  ["Cc1nc(Cc2ccncc2)sc1-c1cccc(-c2ccc(C(=O)O)c(O)c2)c1 [Example 281]", "human Bisphosphoglycerate mutase (hBPGM) (Homo sapiens (Human), UniProt P07738)", 120],
  ["COC(=O)NCc1nc(C)c(-c2cccc(-c3ccc(C(=O)O)c(O)c3)c2)s1 [Example 272]", "human Bisphosphoglycerate mutase (hBPGM) (Homo sapiens (Human), UniProt P07738)", 520],
  ["COC(=O)NCc1nc(C)c(-c2csc(-c3cc(O)c(C(=O)O)cc3C)n2)s1 [Example 130]", "human Bisphosphoglycerate mutase (hBPGM) (Homo sapiens (Human), UniProt P07738)", 40],
  ["Cc1nc(CNC(=O)C(C)C)sc1-c1csc(-c2cc(O)c(C(=O)O)cc2F)n1 [Example 231]", "human Bisphosphoglycerate mutase (hBPGM) (Homo sapiens (Human), UniProt P07738)", 170],
  ["Cc1nc(COc2ncccn2)sc1-c1cccc(-c2ccc(C(=O)O)c(C#N)c2)n1 [Example 78]", "human Bisphosphoglycerate mutase (hBPGM) (Homo sapiens (Human), UniProt P07738)", 70]
]}

# map each molecule to its EC50
1. Cc1nc(CNC(=O)C(C)CN(C)C)sc1-c1csc(-c2cc(O)c(C(=O)O)cc2F)n1 (centres unmarked) [Example 117]
2. Cc1nc(Cc2ccn(C)n2)sc1-c1csc(-c2ccc(C(=O)O)c(O)c2)c1 [Example 216]
3. COC(=O)NCc1nc(C)c(-c2csc(-c3ccc(C(=O)O)c(O)c3)c2)s1 [Example 166]
4. Cc1nc(CNC(=O)c2cccnn2)sc1-c1cccc(-c2cc(O)c(C(=O)O)cc2F)n1 [Example 153]
5. Cc1nc(CNC2CCOCC2)sc1-c1cccc(-c2ccc(C(=O)O)cc2)c1 [Example 51]
6. Cc1nc(CNC(=O)OCC(F)(F)F)sc1-c1csc(-c2cc(O)c(C(=O)O)cc2F)n1 [Example 136]
7. Cc1nc(Cn2c(C#N)cccc2=O)sc1-c1cccc(-c2ccc(C(=O)O)c(O)c2)c1 [Example 103]

8700
200
70
70
4300
90
130

# map each molecule to its EC50
1. Cc1nc(Cc2cccnc2)sc1-c1cccc(-c2ccc(C(=O)O)cc2)c1 [Example 277]
2. Cc1nc(COC(=O)N2CCCC2)sc1-c1csc(-c2cc(O)c(C(=O)O)cc2F)n1 [Example 154]
3. Cc1nc(Cn2cccn2)sc1-c1csc(-c2cc(O)c(C(=O)O)cc2F)c1 [Example 229]
4. Cc1ccc(Cc2nc(C)c(-c3cccc(-c4ccc(C(=O)O)c(O)c4)c3)s2)cn1 [Example 257]

[1100, 40, 30, 160]

Hello, the source for this data is patent US20230348450A1, in case you need it.
